List of pKi values.
Sequence of the target: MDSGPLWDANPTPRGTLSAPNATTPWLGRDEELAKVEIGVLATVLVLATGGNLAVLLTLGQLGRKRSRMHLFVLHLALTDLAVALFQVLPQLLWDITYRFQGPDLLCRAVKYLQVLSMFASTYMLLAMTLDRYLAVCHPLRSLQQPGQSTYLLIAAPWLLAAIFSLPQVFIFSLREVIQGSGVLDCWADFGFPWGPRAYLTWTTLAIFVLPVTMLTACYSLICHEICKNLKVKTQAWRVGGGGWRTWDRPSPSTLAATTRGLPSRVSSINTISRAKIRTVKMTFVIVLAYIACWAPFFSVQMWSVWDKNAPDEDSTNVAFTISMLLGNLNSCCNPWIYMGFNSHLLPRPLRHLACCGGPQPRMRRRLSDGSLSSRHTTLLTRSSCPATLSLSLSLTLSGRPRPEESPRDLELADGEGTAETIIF
pKi: −log10 of the molar value.

Consider the following illustrative entries.
{"compound": "CCN(CC)Cc1ccc(C2(N3CCC[C@H]3c3ncco3)C(=O)N(S(=O)(=O)c3ccc(OC)cc3)c3ccc(Cl)cc32)c(OC)c1 (stereo partly drawn) [Example 19]", "propertyMeasured": "pKi", "valueObserved": "> 8.00"}
{"compound": "COc1ccc(S(=O)(=O)N2C(=O)C(c3ccc(CNCCO)cc3OC)(N3CCC[C@H]3c3ncco3)c3cc(Cl)ccc32)cc1 (stereo partly drawn) [Example 137]", "propertyMeasured": "pKi", "valueObserved": "7.00 to 8.00"}
{"compound": "COc1ccc(S(=O)(=O)N2C(=O)C(c3cc(CNCC(F)(F)F)ccc3OC)(N3CCC[C@H]3c3ncco3)c3cc(Cl)ccc32)cc1 (stereo partly drawn) [Example 130]", "propertyMeasured": "pKi", "valueObserved": "7.00 to 8.00"}
{"compound": "COc1ccc(S(=O)(=O)N2C(=O)C(c3ccc(CN4CCN(C)CC4)cc3OC)(N3C[C@H](O)C[C@H]3c3ncco3)c3cc(Cl)ccc32)cc1 (stereo partly drawn) [Example 165]", "propertyMeasured": "pKi", "valueObserved": "> 8.00"}
{"compound": "CCCNCc1ccc(OC)c(C2(N3CCCC3c3ccccn3)C(=O)N(S(=O)(=O)c3ccc(OC)cc3)c3ccc(Cl)cc32)c1 (stereo not drawn) [Example 123]", "propertyMeasured": "pKi", "valueObserved": "6.00 to 7.00"}

Challenge: Name the recorded pKi for COc1ccc(S(=O)(=O)N2C(=O)C(c3cc(CN4CCOCC4)ccc3OC)(N3C[C@H](O)C[C@H]3c3ncco3)c3cc(C#N)ccc32)cc1 (stereo partly drawn) [Example 220] .
Response given: 7.00 to 8.00
